From: paper PMC10397247

- Tested System: T1, 4H754-bH
- T1 chain: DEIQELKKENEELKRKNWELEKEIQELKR
- Assay Info: two-hybrid library CCNG1;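 also: natural log of median RNA to DNA barcode read ratio; higher means stronger binding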
Measured Metric: interaction score

Binder | Numeric Value
DEIQELEKKIEELKREIWELKKENQELER [4H331-bH] | -1.42
DEIQELEKENEELERKIWELKKEIQELKR [4H170-bH] | 1.02
DKNQELEKKIEELKRKIWELEKENQELER [4H3427-bH] | -0.851
DKIQELKKEIEELERENWELKKEIQELKR [4H2586-bH] | -0.599
DKNQELKKKNEELERKIWELEKEIQELER [4H4001-bH] | -0.348
DKNQELKKKIEELKRENWELEKKIQELKR [4H3926-bH] | 0.0882
DEIQELKKENEELERKIWELKKKNQELER [4H687-bH] | -0.221
